Just for reference, the supplement of paper PMC11061612 is where these values come from.

Let's look at some compounds and their measured Bliss excess.
- Test system: DND-41 (T-Lymphoblastic Leukemia)
- Test Method Notes: Bliss excess, mean over the matrix (fraction); higher = more synergy

{"Compound": "COc1nnc2ccc(N3CCC(c4ccc(OCCN5CCN(C)C(=O)[C@H]5C)cc4)CC3)nn12 [AZD5153] + C=CCn1c(=O)c2cnc(Nc3ccc(N4CCN(C)CC4)cc3)nc2n1-c1cccc(C(C)(C)O)n1 [AZD1775] (first compound max 1 µM, partner max 1 µM)", "Target Under Test": "DND-41 (T-Lymphoblastic Leukemia)", "Bliss excess": -0.0027}
{"Compound": "C=CCn1c(=O)c2cnc(Nc3ccc(N4CCN(C)CC4)cc3)nc2n1-c1cccc(C(C)(C)O)n1 [AZD1775] + Nc1ccn([C@@H]2O[C@H](CO)[C@@H](O)C2(F)F)c(=O)n1 [Gemcitabine] (first compound max 1 µM, partner max 0.3 µM)", "Target Under Test": "DND-41 (T-Lymphoblastic Leukemia)", "Bliss excess": 0.0256}

* * *

Parameter combination Emax: see the listing below.
- System: COLO-678 (Colorectal Carcinoma)
- Test Method Notes: combination Emax (second highest fraction inhibited in the dose matrix, 72 h); higher = more inhibition; extreme values may be limits of the assay

{"Compound": "CC1(C)CCC(CN2CCN(c3ccc(C(=O)NS(=O)(=O)c4ccc(NCC5CCOCC5)c([N+](=O)[O-])c4)c(Oc4cnc5[nH]ccc5c4)c3)CC2)=C(c2ccc(Cl)cc2)C1 [Venetoclax] + C1CN(CCC1(C(=O)N[C@@H](CCO)C2=CC=C(C=C2)Cl)N)C3=NC=NC4=C3C=CN4 [Capivasertib] (first compound max 1 µM, 7x7, partner max 3 µM)", "Target Under Test": "COLO-678 (Colorectal Carcinoma)", "combination Emax": 0.0815}
{"Compound": "Cc1c2c(nn1C)CSCc1cc(n(C)n1)CSc1cc(c3ccccc3c1)OCCCc1c(C(=O)O)n(C)c3c-2c(Cl)ccc13 [AZD5991] + CN(C)CCCOc1ccc(-c2ccc3ncc4c(c3c2)n(C2CCOCC2)c(=O)n4C)cn1 [AZD0156] (first compound max 1 µM, 7x7, partner max 1 µM)", "Target Under Test": "COLO-678 (Colorectal Carcinoma)", "combination Emax": 0.152}

* * *

- System: TC-71 (Ewing's Sarcoma)
- Test Method Notes: combination Emax (second highest fraction inhibited in the dose matrix, 72 h); higher = more inhibition; extreme values may be limits of the assay

{"Compound": "Cc1c2c(nn1C)CSCc1cc(n(C)n1)CSc1cc(c3ccccc3c1)OCCCc1c(C(=O)O)n(C)c3c-2c(Cl)ccc13 [AZD5991] + CCN(CCO)CCCOc1ccc2c(Nc3cc(CC(=O)Nc4cccc(F)c4)[nH]n3)ncnc2c1 [AZD2811] (first compound max 1 µM, 7x7, partner max 1 µM)", "Target Under Test": "TC-71 (Ewing's Sarcoma)", "combination Emax": 0.848}

* * *

- Test system: ES1 (Ewing's Sarcoma)
- Test Method Notes: Bliss excess, mean over the matrix (fraction); higher = more synergy
Bucketed by reported Bliss excess, buckets being b0: < -0.01; b1: ≥ -0.01 and < 0.02; b2: ≥ 0.02

{"Molecule": "CN(CCO)CC[C@H](CSc1ccccc1)Nc1ccc(S(=O)(=O)NC(=O)c2ccc(N3CCC([C@@H](O)c4ccccc4-c4ccc(Cl)cc4)CC3)cc2)cc1S(=O)(=O)C(F)(F)F [AZD4320] + CCN(CCO)CCCOc1ccc2c(Nc3cc(CC(=O)Nc4cccc(F)c4)[nH]n3)ncnc2c1 [AZD2811] (first compound max 1 µM, 7x7, partner max 1 µM)", "Category": "b2"}
{"Molecule": "Cc1cc2ncnn2cc1Nc1ncc2c(n1)n(C1CCOCC1)c(=O)n2C [AZD7648] + O=C(c1cc(Cc2n[nH]c(=O)c3ccccc23)ccc1F)N1CCN(C(=O)C2CC2)CC1 [Olaparib] (first compound max 10 µM, 7x7, partner max 10 µM)", "Category": "b0"}
{"Molecule": "Cc1c2c(nn1C)CSCc1cc(n(C)n1)CSc1cc(c3ccccc3c1)OCCCc1c(C(=O)O)n(C)c3c-2c(Cl)ccc13 [AZD5991] + C[C@@H]1COCCN1C2=NC(=NC(=C2)C3(CC3)[S@](=N)(=O)C)C4=C5C=CNC5=NC=C4 [AZD6738] (first compound max 1 µM, 7x7, partner max 10 µM)", "Category": "b2"}
{"Molecule": "CN(CCO)CC[C@H](CSc1ccccc1)Nc1ccc(S(=O)(=O)NC(=O)c2ccc(N3CCC([C@@H](O)c4ccccc4-c4ccc(Cl)cc4)CC3)cc2)cc1S(=O)(=O)C(F)(F)F [AZD4320] + Cn1cnc2c(F)c(Nc3ccc(Br)cc3Cl)c(C(=O)NOCCO)cc21 [Selumetinib] (first compound max 1 µM, 7x7, partner max 3 µM)", "Category": "b1"}
{"Molecule": "CN(CCO)CC[C@H](CSc1ccccc1)Nc1ccc(S(=O)(=O)NC(=O)c2ccc(N3CCC([C@@H](O)c4ccccc4-c4ccc(Cl)cc4)CC3)cc2)cc1S(=O)(=O)C(F)(F)F [AZD4320] + CS(=O)(=O)CCNCc1ccc(-c2ccc3ncnc(Nc4ccc(OCc5cccc(F)c5)c(Cl)c4)c3c2)o1 [Lapatinib] (first compound max 1 µM, 7x7, partner max 10 µM)", "Category": "b0"}
{"Molecule": "Cc1nc(Nc2ncc(C(=O)Nc3c(C)cccc3Cl)s2)cc(N2CCN(CCO)CC2)n1 [Dasatinib] + CC(=O)Nc1cccc(-n2c(=O)n(C3CC3)c(=O)c3c(Nc4ccc(I)cc4F)n(C)c(=O)c(C)c32)c1 [Trametinib] (first compound max 2 µM, 7x7, partner max 1 µM)", "Category": "b0"}
{"Molecule": "Cn1cnc2c(F)c(Nc3ccc(Br)cc3Cl)c(C(=O)NOCCO)cc21 [Selumetinib] + CCN(CCO)CCCOc1ccc2c(Nc3cc(CC(=O)Nc4cccc(F)c4)[nH]n3)ncnc2c1 [AZD2811] (first compound max 10 µM, 7x7, partner max 1 µM)", "Category": "b1"}
{"Molecule": "Cc1nc(-c2cn3c(n2)-c2ccc(-c4cnn(C(C)(C)C(N)=O)c4)cc2OCC3)n(C(C)C)n1 [Taselisib] + O=C(Nc1ccc2[nH]nc(-c3ccncc3)c2c1)[C@@H]1CCN(CC(=O)N2CCN(c3ccc(-c4ncccn4)cc3)CC2)C1 [SCH772984] (first compound max 10 µM, 7x7, partner max 5 µM)", "Category": "b2"}
{"Molecule": "CC(=O)Nc1cccc(-n2c(=O)n(C3CC3)c(=O)c3c(Nc4ccc(I)cc4F)n(C)c(=O)c(C)c32)c1 [Trametinib] + Cc1nc(-c2cn3c(n2)-c2ccc(-c4cnn(C(C)(C)C(N)=O)c4)cc2OCC3)n(C(C)C)n1 [Taselisib] (first compound max 1 µM, 7x7, partner max 10 µM)", "Category": "b1"}
{"Molecule": "Cn1cnc2c(F)c(Nc3ccc(Br)cc3Cl)c(C(=O)NOCCO)cc21 [Selumetinib] + CC(C)n1c(=O)n(C)c2cnc3cc(F)c(-c4ccc(OCCCN5CCCCC5)nc4)cc3c21 [AZD1390] (first compound max 10 µM, 7x7, partner max 0.3 µM)", "Category": "b0"}
{"Molecule": "C=CCn1c(=O)c2cnc(Nc3ccc(N4CCN(C)CC4)cc3)nc2n1-c1cccc(C(C)(C)O)n1 [AZD1775] + CCc1c2c(nc3ccc(O)cc13)-c1cc3c(c(=O)n1C2)COC(=O)[C@]3(O)CC [SN-38] (first compound max 1 µM, partner max 0.3 µM)", "Category": "b0"}

* * *

Measured Bliss excess accompanies every entry in the list below.
- Test system: GR-ST (B-Lymphoblastic Leukemia)
- Test Method Notes: Bliss excess, mean over the matrix (fraction); higher = more synergy

{"Compound": "CCN(CCO)CCCOc1ccc2c(Nc3cc(CC(=O)Nc4cccc(F)c4)[nH]n3)ncnc2c1 [AZD2811] + C=CCn1c(=O)c2cnc(Nc3ccc(N4CCN(C)CC4)cc3)nc2n1-c1cccc(C(C)(C)O)n1 [AZD1775] (first compound max 1 µM, partner max 1 µM)", "Target Under Test": "GR-ST (B-Lymphoblastic Leukemia)", "Bliss excess": -0.0338}
{"Compound": "CCc1c2c(nc3ccc(O)cc13)-c1cc3c(c(=O)n1C2)COC(=O)[C@]3(O)CC [SN-38] + CN(C)CCCOc1ccc(-c2ccc3ncc4c(c3c2)n(C2CCOCC2)c(=O)n4C)cn1 [AZD0156] (first compound max 0.3 µM, 7x7, partner max 1 µM)", "Target Under Test": "GR-ST (B-Lymphoblastic Leukemia)", "Bliss excess": -0.0319}
{"Compound": "C[C@@H]1COCCN1c1cc(C2([S@](C)(=N)=O)CC2)nc(-c2ccnc3[nH]ccc23)n1 [AZD6738] + Nc1ccn([C@@H]2O[C@H](CO)[C@@H](O)C2(F)F)c(=O)n1 [Gemcitabine] (first compound max 10 µM, 7x7, partner max 0.3 µM)", "Target Under Test": "GR-ST (B-Lymphoblastic Leukemia)", "Bliss excess": 0.0085}
{"Compound": "CN(CCO)CC[C@H](CSc1ccccc1)Nc1ccc(S(=O)(=O)NC(=O)c2ccc(N3CCC([C@@H](O)c4ccccc4-c4ccc(Cl)cc4)CC3)cc2)cc1S(=O)(=O)C(F)(F)F [AZD4320] + Cn1cnc2c(F)c(Nc3ccc(Br)cc3Cl)c(C(=O)NOCCO)cc21 [Selumetinib] (first compound max 1 µM, 7x7, partner max 3 µM)", "Target Under Test": "GR-ST (B-Lymphoblastic Leukemia)", "Bliss excess": -0.0417}
